- assayedTarget: MMP-14 (Homo sapiens, UniProt P50281)
- Construct: The catalytic domain enzyme was expressed in E. coli inclusion bodies, solubilized in urea; made in house
- assayComment: In vitro MMP inhibition, IC50 determination (fluorogenic substrate I)
- Assay type: biochemical
- testContext: value in parenthesis; read-out: MMP-14 (IC-50)
Would you kindly list IC50 for each of these compounds?
I only need the number, in µM, no unit after it.

Lab book: IC50 of `CCOCCCc1ccc(N2CCN(S(=O)(=O)C3(C(=O)NO)CCN(CCOC)CC3)CC2)cc1` noted as 3.62

Measured IC50 of `CCCc1ccc(N2CCN(S(=O)(=O)C3(C(=O)NO)CCN(CCOC)CC3)CC2)cc1` : 1.49

Reported IC50 ( `COCCCc1ccc(N2CCN(S(=O)(=O)C3(C(=O)NO)CCN(CCOC)CC3)CC2)cc1` ) = 5.56

Entry `O=C(NO)C1(S(=O)(=O)N2CCN(c3ccc(OC(F)(F)F)cc3)CC2)CCN(C2CC2)CC1` ; IC50 = 0.648

The value of IC50 measured for the compound `CCCCCCc1ccc(N2CCN(S(=O)(=O)C3(C(=O)NO)CCN(CCOC)CC3)CC2)cc1` turned out to be 6.71

Field IC50 (entry `COCCN1CCC(C(=O)NO)(S(=O)(=O)N2CCN(c3ccc(C#N)cc3)CC2)CC1` ) reads 7.48

Reported IC50 of `COCCN1CCC(C(=O)NO)(S(=O)(=O)N2CCN(c3ccc(CCC4CCCC4)cc3)CC2)CC1` : 7.85

# compound `COCCN1CCC(C(=O)NO)(S(=O)(=O)N2CCN(c3ccc(Br)cc3)CC2)CC1` ; its IC50 = 0.301

Lookup result for `COCCN1CCC(C(=O)NO)(S(=O)(=O)N2CCN(c3ccc(CC4CCC4)cc3)CC2)CC1` ; measured IC50: 2.04

Form field IC50, entry `COCCN1CCC(C(=O)NO)(S(=O)(=O)N2CCN(c3ccc(OC(F)(F)F)cc3)CC2)CC1` : 1.17

IC50 measured on `CCOc1ccc(N2CCN(S(=O)(=O)C3(C(=O)NO)CCN(CCOC)CC3)CC2)cc1F` = 2.4

* * *

- assayedTarget: MMP-13 (Homo sapiens)
- Construct: made in house; host or cells: baculovirus / insect cells
- assayComment: In vitro MMP inhibition, IC50 determination (fluorogenic substrate I)
- Assay type: biochemical
- testContext: values in parenthesis; 4 μM substrate I; room temperature
Structures can show the parent of a compound that is named as a salt.
measuredProperty: IC50

Record summary for CCCCOc1ccc(N2CCN(S(=O)(=O)C3(C(=O)NO)CCN(CCOC)CC3)CC2)cc1F [Example 11, Dihydrochloride] : reported IC50 = 0.8 nM

IC50 recorded for this compound, CCCCCc1ccc(C2CCN(S(=O)(=O)C3(C(=O)NO)CCN(CCOC)CC3)CC2)cc1 [Example 15, Hydrochloride] , is 0.1 nM

Briefly, IC50 measured for CCCCCc1ccc(N2CCN(S(=O)(=O)C3(C(=O)NO)CCN(CCOC)CC3)CC2)cc1 [Example 6, Dihydrochloride] : 0.1 nM

Record summary for CCCCc1ccc(N2CCN(S(=O)(=O)C3(C(=O)NO)CCN(CCOC)CC3)CC2)cc1 [Example 5, Dihydrochloride] : reported IC50 = < 0.1 nM

Field IC50 (entry O=C(NO)C1(S(=O)(=O)N2CCN(c3ccc(OCC4CC4)c(F)c3)CC2)CCN(C2CC2)CC1 [Example 10, dihydrochloride] ) reads 1.3 nM

All figures here come from patent US20050209278A1.
